Listed here: items and their measured Ki.
# TEST TARGET: delta receptors (Cavia porcellus, UniProt A0A286XTF2)
# Construct: The brains were then homogenized in 50 mM Tris HCl, buffer pH 7.7, using a Polytron; from tissue; host or cells: guinea pig brain homogenate (membrane pellet)
# Sequence (A0A286XTF2 1-366): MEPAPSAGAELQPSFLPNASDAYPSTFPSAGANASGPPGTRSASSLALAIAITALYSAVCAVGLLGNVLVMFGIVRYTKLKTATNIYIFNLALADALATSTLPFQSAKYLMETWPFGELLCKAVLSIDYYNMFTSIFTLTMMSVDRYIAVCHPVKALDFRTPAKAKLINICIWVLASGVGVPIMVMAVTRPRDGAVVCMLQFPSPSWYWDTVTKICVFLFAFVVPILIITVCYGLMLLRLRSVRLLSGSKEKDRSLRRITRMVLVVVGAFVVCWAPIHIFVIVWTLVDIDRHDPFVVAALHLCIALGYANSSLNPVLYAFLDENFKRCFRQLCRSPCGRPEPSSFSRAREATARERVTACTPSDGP
# ASSAY PROTOCOL: biochemical
# Assay type: binding, guinea pig
# RECORDED CONDITIONS: read-out: Ki δ [^3H]Cl-DPDPE

{"COMPOUND": "CC[C@@]12CCN(CC3CC3)C(C(=O)c3ccc(O)cc31)[C@@H]2C (single isomer, unassigned; (-)) [(−)EKC]", "TEST TARGET": "delta receptors (Cavia porcellus, UniProt A0A286XTF2)", "Ki (nM)": 2}
{"COMPOUND": "CCC12CCN(CC3(O)CC3)C(Cc3ccc(O)cc31)C2(C)C (single isomer, unassigned; (-)) [(−)Bremazocine]", "TEST TARGET": "delta receptors (Cavia porcellus, UniProt A0A286XTF2)", "Ki (nM)": 0.3}
{"COMPOUND": "CC1(C)SSC(C)(C)[C@@H](NC(=O)[C@@H](N)Cc2ccc(O)cc2)C(=O)NCC(=O)N[C@@H](Cc2ccc(Cl)cc2)C(=O)N[C@H]1C(=O)O [DPDPE-Cl]", "TEST TARGET": "delta receptors (Cavia porcellus, UniProt A0A286XTF2)", "Ki (nM)": 0.3}
{"COMPOUND": "Oc1ccc2c3c1O[C@H]1c4oc5ccccc5c4C[C@@]4(O)[C@@H](C2)N(CC2CC2)CC[C@]314 [NTB]", "TEST TARGET": "delta receptors (Cavia porcellus, UniProt A0A286XTF2)", "Ki (nM)": 0.06}
{"COMPOUND": "CCC12CCN(CC3(O)CC3)C(Cc3ccc(O)cc31)C2(C)C (single isomer, unassigned; (+)) [(+)Bremazocine]", "TEST TARGET": "delta receptors (Cavia porcellus, UniProt A0A286XTF2)", "Ki (nM)": 0.7}
